Here the recorded Population Healthy Nuclei (%) is given for each entry.
test system: Fibroblast; test: Multiplex assay against human fibroblast; format: toxicity, cell-based; settings: 12 h, 10 µM, compound concentration 10 uM, replicate 1
assay metric: Population Healthy Nuclei (%)

{"columns": ["molecule", "readout value"],
 "data": [
  ["CC(/C=C1\\SC(=S)N(CCCC(=O)Nc2ccc(C(=O)O)c(O)c2)C1=O)=C\\c1ccccc1", 48],
  ["CCCc1cc(C)[nH]c(=O)c1CNC(=O)c1cc(-c2ccc(N3CCN(C(C)C)CC3)nc2)cc2c1cnn2C(C)C", 32],
  ["CC(Cc1ccc(O)c(O)c1)C(C)Cc1ccc(O)c(O)c1 (stereo not drawn) [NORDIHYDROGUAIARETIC ACID]", 46],
  ["CC(C)[C@H](CO)Nc1nc(Nc2cccc(Cl)c2)c2ncn(C(C)C)c2n1 [PURVALANOLA]", 38],
  ["CN1C(=O)[C@@H](NC(=O)c2cc3ccccc3[nH]2)N=C(c2ccccc2)c2ccccc21 [DEVAZEPIDE]", 48],
  ["CN(c1cc(C(F)(F)F)nc(OCCC(=O)O)n1)c1cccc2c1CCC2", 49],
  ["CC[C@@H]1C(=O)N(C)c2cnc(Nc3ccc(C(=O)NC4CCN(C)CC4)cc3OC)nc2N1C1CCCC1 [BI-2536]", 50],
  ["CC[C@H](Nc1ncnc2[nH]cnc12)c1nc2cccc(F)c2c(=O)n1-c1ccccc1 [IDELALISIB]", 59]
]}
